# systemName: Coagulation factor VII/tissue factor (Homo sapiens, UniProt P08709)
# Sequence (P08709 61-212 limits assumed): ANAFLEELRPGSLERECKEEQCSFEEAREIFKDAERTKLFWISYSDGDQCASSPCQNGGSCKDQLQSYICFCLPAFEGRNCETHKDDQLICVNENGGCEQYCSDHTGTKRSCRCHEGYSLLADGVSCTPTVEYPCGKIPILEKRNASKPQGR
# Sequence (P08709 213-466 limits assumed): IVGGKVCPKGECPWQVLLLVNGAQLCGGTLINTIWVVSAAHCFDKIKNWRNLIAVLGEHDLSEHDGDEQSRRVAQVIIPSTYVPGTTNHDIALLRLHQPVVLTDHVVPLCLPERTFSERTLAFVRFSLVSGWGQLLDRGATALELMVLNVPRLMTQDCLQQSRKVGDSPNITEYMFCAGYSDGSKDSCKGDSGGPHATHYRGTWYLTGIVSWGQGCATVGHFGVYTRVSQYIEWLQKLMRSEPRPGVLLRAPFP
# Sequence (P13726 33-295 partner limits assumed): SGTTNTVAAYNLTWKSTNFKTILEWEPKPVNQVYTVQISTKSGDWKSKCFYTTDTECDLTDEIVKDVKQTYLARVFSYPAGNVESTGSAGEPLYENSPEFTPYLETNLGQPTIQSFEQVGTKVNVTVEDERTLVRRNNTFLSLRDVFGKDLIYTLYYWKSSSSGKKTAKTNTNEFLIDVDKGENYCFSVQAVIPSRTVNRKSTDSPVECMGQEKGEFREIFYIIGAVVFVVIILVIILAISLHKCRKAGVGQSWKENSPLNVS
# assayNotes: Inhibition of tissue factor/factor 7a
measure: IC50 (nM)

CC(C)CNC(=O)c1ccc(-c2ccc(C#CCO)cc2C(=O)Nc2ccc(C(=N)N)cc2)c(C(=O)O)c1 = 320

A: C=Cc1ccc(-c2ccc(C(=O)NCC(C)C)cc2C(=O)O)c(C(=O)Nc2ccc(C(=N)N)cc2)c1
B: CC(C)CNC(=O)c1ccc(-c2ccc(-c3ccncc3)cc2C(=O)Nc2ccc(C(=N)N)cc2)c(C(=O)O)c1
C: C=C(CCO)c1ccc(-c2ccc(C(=O)NCC(C)C)cc2C(=O)O)c(C(=O)Nc2ccc(C(=N)N)cc2)c1
Lookup: Could you please order the items by IC50, going from the lowest number to the highest? Enter labels, ranked according to the request.
Found: A, C, B

---

# systemName: Coagulation factor VII/tissue factor (Homo sapiens, UniProt P08709)
# assayNotes: Inhibition of tissue factor/factor 7a
measure: IC50 (µM)

Below: 4 compounds and their reported IC50.
CC(C)CNC(=O)c1ccc(-c2ccc(-c3occc3CO)cc2C(=O)Nc2ccc(C(=N)N)cc2)c(C(=O)O)c1 = 0.024
C/C=C\Cc1ccc(-c2ccc(C(=O)NCC(C)C)cc2C(=O)O)c(C(=O)Nc2ccc(C(=N)N)cc2)c1 = 0.011
CC(C)CNC(=O)c1ccc(-c2ccc(-c3cocc3CO)cc2C(=O)Nc2ccc(C(=N)N)cc2)c(C(=O)O)c1 = 0.02
CC(C)CNC(=O)c1ccc(-c2ccc(-c3ccc(CO)s3)cc2C(=O)Nc2ccc(C(=N)N)cc2)c(C(=O)O)c1 = 0.65

1: CC(C)CNC(=O)c1ccc(-c2ccc(CN)cc2C(=O)Nc2ccc(C(=N)N)cc2)c(C(=O)O)c1
2: CC(C)CNC(=O)c1ccc(-c2ccc(CN=[N+]=[N-])cc2C(=O)Nc2ccc(C(=N)N)cc2)c(C(=O)O)c1
Lookup: Form field 'greater IC50' accepts 1 or 2 ; which applies? Answer by quoting the chosen item's label.
Found: 1
(1: 1.22 µM, 2: 0.06 µM)

---

Quick record of pIC50 values for Plasminogen (Homo sapiens, UniProt P00747).
pIC50: −log10 of the molar value.
measure: pIC50

A: COc1ccc(-c2ccc(C(=O)NCC(C)C)cc2C(=O)O)c(C(=O)Nc2ccc(C(=N)N)cc2)c1
B: CC(C)CNC(=O)c1ccc(-c2ccc(-c3cscc3CN)cc2C(=O)Nc2ccc(C(=N)N)cc2)c(C(=O)O)c1
C: CC(C)CNC(=O)c1ccc(-c2ccc(-c3ccoc3CO)cc2C(=O)Nc2ccc(C(=N)N)cc2)c(C(=O)O)c1
D: C#Cc1ccc(-c2ccc(C(=O)NCC(C)C)cc2C(=O)O)c(C(=O)Nc2ccc(C(=N)N)cc2)c1
Lookup: Sort ascending by pIC50: all records listed above. Enter labels, ranked according to the request.
Found: A, D, C, B
(A: 4.84, D: 6.00, C: 6.34, B: 6.64)

P: CC(C)CNC(=O)c1ccc(-c2ccc(-c3cscc3CN=[N+]=[N-])cc2C(=O)Nc2ccc(C(=N)N)cc2)c(C(=O)O)c1
Q: CC(C)CNC(=O)c1ccc(-c2ccc(Cc3cccs3)cc2C(=O)Nc2ccc(C(=N)N)cc2)c(C(=O)O)c1
Lookup: Given the listed items, does P or Q have the lesser reported pIC50? Answer by quoting the chosen item's label.
Found: Q
(Q: 6.04, P: 6.62)

---

# assayNotes: Selectivity ratio of IC50 for tissue factor/factor 7a to IC50 for trypsin
measure: Ratio IC50

Below: 5 compounds and their reported Ratio IC50.
CCc1ccc(-c2ccc(C(=O)NCC(C)C)cc2C(=O)O)c(C(=O)Nc2ccc(C(=N)N)cc2)c1 = 61.8
CC(C)=CCc1ccc(-c2ccc(C(=O)NCC(C)C)cc2C(=O)O)c(C(=O)Nc2ccc(C(=N)N)cc2)c1 = 21.1
CC(C)CNC(=O)c1ccc(-c2ccc(Cc3ccccc3)cc2C(=O)Nc2ccc(C(=N)N)cc2)c(C(=O)O)c1 = 26.9
CC(C)CNC(=O)c1ccc(-c2ccc(-c3ccoc3)cc2C(=O)Nc2ccc(C(=N)N)cc2)c(C(=O)O)c1 = 42.6
C=CCc1ccc(-c2ccc(C(=O)NCC(C)C)cc2C(=O)O)c(C(=O)Nc2ccc(C(=N)N)cc2)c1 = 57.6

a: CC(C)CNC(=O)c1ccc(-c2ccc(-c3ccsc3CO)cc2C(=O)Nc2ccc(C(=N)N)cc2)c(C(=O)O)c1
b: CC(C)CNC(=O)c1ccc(-c2ccc(-c3ccccc3)cc2C(=O)Nc2ccc(C(=N)N)cc2)c(C(=O)O)c1
c: CC(C)CNC(=O)c1ccc(-c2ccc(Cc3cccs3)cc2C(=O)Nc2ccc(C(=N)N)cc2)c(C(=O)O)c1
d: COc1ccc(-c2ccc(C(=O)NCC(C)C)cc2C(=O)O)c(C(=O)Nc2ccc(C(=N)N)cc2)c1
Lookup: Could you please order the items by Ratio IC50, going from the lowest number to the highest? Enter labels, ranked according to the request.
Found: b, d, a, c
(b: 4.3, d: 25.3, a: 84.4, c: 127)

A: C=C=Cc1ccc(-c2ccc(C(=O)NCC(C)C)cc2C(=O)O)c(C(=O)Nc2ccc(C(=N)N)cc2)c1
B: CC(C)CNC(=O)c1ccc(-c2ccc(-c3cccnc3)cc2C(=O)Nc2ccc(C(=N)N)cc2)c(C(=O)O)c1
C: CC(C)CNC(=O)c1ccc(-c2ccccc2C(=O)Nc2ccc(C(=N)N)cc2)c(C(=O)O)c1
D: CC(C)CNC(=O)c1ccc(-c2ccc(-c3sccc3CO)cc2C(=O)Nc2ccc(C(=N)N)cc2)c(C(=O)O)c1
Lookup: Rank entries according to their Ratio IC50, from the largest number down. Enter labels, ranked according to the request.
Found: A, D, B, C
(A: 59.8, D: 13.3, B: 5.5, C: 1.5)

---

# assayNotes: Selectivity ratio of IC50 for tissue factor/factor 7a to IC50 for trypsin
measure: Ratio IC50

CCCc1ccc(-c2ccc(C(=O)NCC(C)C)cc2C(=O)O)c(C(=O)Nc2ccc(C(=N)N)cc2)c1 = 450

A: CC(C)CNC(=O)c1ccc(-c2ccc(-c3ccc[nH]3)cc2C(=O)Nc2ccc(C(=N)N)cc2)c(C(=O)O)c1
B: CC(C)CNC(=O)c1ccc(-c2ccc(O)cc2C(=O)Nc2ccc(C(=N)N)cc2)c(C(=O)O)c1
Lookup: Form field 'greater Ratio IC50' accepts A or B ; which applies? Answer by quoting the chosen item's label.
Found: A

---

# systemName: Coagulation factor VII/tissue factor (Homo sapiens)
# assayNotes: Inhibition of tissue factor/factor 7a
pIC50: −log10 of the molar value.
measure: pIC50

Below: 5 compounds and their reported pIC50.
CC(C)CNC(=O)c1ccc(-c2ccc(C=CCO)cc2C(=O)Nc2ccc(C(=N)N)cc2)c(C(=O)O)c1 = 7.28
CC(C)CNC(=O)c1ccc(-c2ccc(-c3ccsc3C(=O)O)cc2C(=O)Nc2ccc(C(=N)N)cc2)c(C(=O)O)c1 = 6.72
CC(C)CNC(=O)c1ccc(-c2ccc(-c3ccco3)cc2C(=O)Nc2ccc(C(=N)N)cc2)c(C(=O)O)c1 = 8.05
C=CCc1ccc(-c2ccc(C(=O)NCC(C)C)cc2C(=O)O)c(C(=O)Nc2ccc(C(=N)N)cc2)c1 = 7.38
CC(C)CNC(=O)c1ccc(-c2ccc(C#CCCO)cc2C(=O)Nc2ccc(C(=N)N)cc2)c(C(=O)O)c1 = 6.30

I: COc1ccc(-c2ccc(C(=O)NCC(C)C)cc2C(=O)O)c(C(=O)Nc2ccc(C(=N)N)cc2)c1
II: CC(C)CNC(=O)c1ccc(-c2ccc(-c3ccccc3)cc2C(=O)Nc2ccc(C(=N)N)cc2)c(C(=O)O)c1
III: CC(C)CNC(=O)c1ccc(-c2ccc(C#CC(C)(C)O)cc2C(=O)Nc2ccc(C(=N)N)cc2)c(C(=O)O)c1
Lookup: Could you please order the items by pIC50, going from the lowest number to the highest? Enter labels, ranked according to the request.
Found: III, II, I
(III: 6.03, II: 7.01, I: 7.52)

---

# assayNotes: Selectivity ratio of IC50 for tissue factor/factor 7a to IC50 for trypsin
measure: Ratio IC50

A: CC(C)CNC(=O)c1ccc(-c2ccc(-c3cocc3CO)cc2C(=O)Nc2ccc(C(=N)N)cc2)c(C(=O)O)c1
B: CC(C)CNC(=O)c1ccc(-c2ccc(C=CCO)cc2C(=O)Nc2ccc(C(=N)N)cc2)c(C(=O)O)c1
C: CC(C)CNC(=O)c1ccc(-c2ccc(-c3nccs3)cc2C(=O)Nc2ccc(C(=N)N)cc2)c(C(=O)O)c1
D: C=Cc1ccc(-c2ccc(C(=O)NCC(C)C)cc2C(=O)O)c(C(=O)Nc2ccc(C(=N)N)cc2)c1
E: CC(C)CNC(=O)c1ccc(-c2ccc(-c3ccncc3)cc2C(=O)Nc2ccc(C(=N)N)cc2)c(C(=O)O)c1
Lookup: // sort listed items: Ratio IC50 descending Enter labels, ranked according to the request.
Found: A, D, B, C, E

1: CC#Cc1ccc(-c2ccc(C(=O)NCC(C)C)cc2C(=O)O)c(C(=O)Nc2ccc(C(=N)N)cc2)c1
2: CC(C)CNC(=O)c1ccc(-c2ccc(-c3ccoc3CO)cc2C(=O)Nc2ccc(C(=N)N)cc2)c(C(=O)O)c1
Lookup: Form field 'greater Ratio IC50' accepts 1 or 2 ; which applies? Answer by quoting the chosen item's label.
Found: 2

A: CC(C)CNC(=O)c1ccc(-c2ccc(-c3cscc3CN)cc2C(=O)Nc2ccc(C(=N)N)cc2)c(C(=O)O)c1
B: CC(C)CNC(=O)c1ccc(-c2ccc(C#CCCO)cc2C(=O)Nc2ccc(C(=N)N)cc2)c(C(=O)O)c1
C: C#Cc1ccc(-c2ccc(C(=O)NCC(C)C)cc2C(=O)O)c(C(=O)Nc2ccc(C(=N)N)cc2)c1
D: C=C(CO)c1ccc(-c2ccc(C(=O)NCC(C)C)cc2C(=O)O)c(C(=O)Nc2ccc(C(=N)N)cc2)c1
Lookup: Rank entries according to their Ratio IC50, from the largest number down. Enter labels, ranked according to the request.
Found: D, C, A, B
(D: 295, C: 115, A: 54.2, B: 0.8)
